Entry source: ChEMBL document CHEMBL1124182

concentration at 2 h values for the compounds below.
- assay.notes: Blood level was evaluated by a disk agar diffusion assay at 2.0 hr when administered at a peroral dose of 25 mg/kg
- Format: ADME, organism-based
- Set-up: dose 25 mg/kg, route oral
- condition.set: mouse, po, read-out: Blood level
Please respond with the number in ng/mL and leave the unit unwritten.

C[C@H]1C[C@H](N)CN1c1cc2c(cc1F)c(=O)c(C(=O)O)cn2-c1ccc(F)cc1    400

Now take the following compound into account.
Recorded concentration at 2 h of C[C@H]1C[C@H](N)CN1c1nc2c(cc1F)c(=O)c(C(=O)O)cn2-c1ccc(F)cc1 , please. 1500

====

- assay.notes: Partition coefficient (logP)
- Assay type: physicochemical
- condition.set: octanol/water
Would you please tag the item true (1) when its logP is -0.5 or above, and false (0) when it is below?

Reference set (6 entries):
C[C@H]1C[C@H](N)CN1c1nc2c(cc1F)c(=O)c(C(=O)O)cn2-c1ccc(F)cc1F    true (1)
C[C@@H]1C[C@H](N)CN1c1cc2c(cc1F)c(=O)c(C(=O)O)cn2-c1ccc(F)cc1F    true (1)
N[C@H]1CC(CN2CCCC2)N(c2cc3c(cc2F)c(=O)c(C(=O)O)cn3-c2ccc(F)cc2F)C1 (some centres not stated)    false (0)
NC1CCN(c2nc3c(cc2F)c(=O)c(C(=O)O)cn3-c2ccc(F)cc2F)C1 (configuration not stated) [TOSUFLOXACIN]    true (1)
C[C@H]1C[C@H](N)CN1c1cc2c(cc1F)c(=O)c(C(=O)O)cn2-c1ccc(F)cc1F    true (1)
C[C@@H]1C[C@H](N)CN1c1nc2c(cc1F)c(=O)c(C(=O)O)cn2-c1ccc(F)cc1F    true (1)

Alright, here's another molecule for you.
Say whether N[C@H]1CC(CO)N(c2cc3c(cc2F)c(=O)c(C(=O)O)cn3-c2ccc(F)cc2F)C1 (some centres not stated) shows logP of -0.5 or more. false (0)

====

- Test system: Streptococcus agalactiae
- assay.notes: In vitro Minimum inhibitory concentration against Streptococcus agalactiae CMX 508
- Type: functional
Field 'label' (enum: 1 (yes) / 0 (no)). Set to 1 (yes) when MIC is strictly under 0.8 µg/mL; else 0 (no).

Solved cases (3 shown):
NC1CCN(c2cc3c(cc2F)c(=O)c(C(=O)O)cn3-c2ccc(F)cc2F)C1 (centres undefined)    1 (yes)
CCC1C[C@H](N)CN1c1cc2c(cc1F)c(=O)c(C(=O)O)cn2-c1ccc(F)cc1F (some centres undefined)    1 (yes)
O=C(O)c1cn(-c2ccc(F)cc2)c2cc(N3CCC[C@@H]3CO)c(F)cc2c1=O    0 (no)

Is MIC of C[C@H]1C[C@H](N)CN1c1cc2c(cc1F)c(=O)c(C(=O)O)cn2-c1ccc(F)cc1F strictly below 0.8 µg/mL? 1 (yes)

In plain terms, does C[C@@H]1C[C@H](N)CN1c1nc2c(cc1F)c(=O)c(C(=O)O)cn2-c1ccc(F)cc1F come in under 0.8 µg/mL for MIC? 0 (no)

====

- assay.notes: Blood level was evaluated by a disk agar diffusion assay at 1.0 hr when administered at a peroral dose of 25 mg/kg
- Assay type: ADME, organism-based
- Design: dose 25 mg/kg, route oral
- condition.set: mouse, po, read-out: Blood level
# Lookup of reported concentration at 1 h keyed by entry
A complete answer gives the number followed by the unit.

C[C@H]1C[C@H](N)CN1c1cc2c(cc1F)c(=O)c(C(=O)O)cn2-c1ccc(F)cc1    800 ng/mL

Shift focus to the following entry.
What concentration at 1 h value was documented for this molecule, C[C@H]1C[C@H](N)CN1c1nc2c(cc1F)c(=O)c(C(=O)O)cn2-c1ccc(F)cc1 ? 1900 ng/mL

====

- assay.notes: Compound was evaluated for the solubility in Ringer's buffer solution
- Type: ADME
- condition.set: buffer
measurement.label: solubility (µg/mL)
Form entry: value (µg/mL) — number only.

// returns reported solubility for input NC1CCN(c2nc3c(cc2F)c(=O)c(C(=O)O)cn3-c2ccc(F)cc2F)C1 (stereo unspecified) 8

====

- System: Pseudomonas aeruginosa
- assay.notes: In vitro Minimum inhibitory concentration against Pseudomonas aeruginosa 5007
- Format: functional
Reported MIC values for a set of compounds
Use mg/L as the unit, but write only the number.

Worked set:
C[C@@H]1C[C@H](N)CN1c1cc2c(cc1F)c(=O)c(C(=O)O)cn2-c1ccc(F)cc1F    5
O=C(O)c1cn(C2CC2)c2cc(N3CCNCC3)c(F)cc2c1=O    0.39
N[C@H]1CC(CF)N(c2nc3c(cc2F)c(=O)c(C(=O)O)cn3-c2ccc(F)cc2F)C1 (some centres undefined)    0.78
COCC1C[C@H](N)CN1c1nc2c(cc1F)c(=O)c(C(=O)O)cn2-c1ccc(F)cc1F (some centres undefined)    1.56
N[C@H]1C[C@@H](CO)N(c2cc3c(cc2F)c(=O)c(C(=O)O)cn3-c2ccc(F)cc2F)C1    12.5

Could you share which MIC value was measured for C[C@H]1C[C@H](N)CN1c1nc2c(cc1F)c(=O)c(C(=O)O)cn2-c1ccc(F)cc1F ? 0.78

Dear colleague, I am looking for the recorded MIC of the following compound: NC1CCN(c2cc3c(cc2F)c(=O)c(C(=O)O)cn3-c2ccc(F)cc2F)C1 (centres undefined) 1.56

Please give the measured MIC for this compound: N[C@H]1CC(CN2CCCC2)N(c2cc3c(cc2F)c(=O)c(C(=O)O)cn3-c2ccc(F)cc2F)C1 (some centres undefined) 1.56

Could you share which MIC value was measured for C[C@H]1C[C@H](N)CN1c1cc2c(cc1F)c(=O)c(C(=O)O)cn2-c1ccc(F)cc1 ? 3.1

====

- assay.notes: Blood level was evaluated by a disk agar diffusion assay at 24.0 hr when administered at a peroral dose of 25 mg/kg
- Type: ADME, organism-based
- Parameters: dose 25 mg/kg, route oral
- condition.set: mouse, po, read-out: Blood level
measurement.label: concentration at 24 h
The reply should consist of the numeric value with the unit placed after it.

Given C[C@H]1C[C@H](N)CN1c1nc2c(cc1F)c(=O)c(C(=O)O)cn2-c1ccc(F)cc1 , state its recorded concentration at 24 h. 100 ng/mL

====

- System: Streptococcus agalactiae
- assay.notes: In vitro Minimum inhibitory concentration against Streptococcus agalactiae CMX 508
- Assay type: functional
measurement.label: MIC (µg/mL)
Express your answer in µg/mL, writing the number without its unit.

COCC1C[C@H](N)CN1c1nc2c(cc1F)c(=O)c(C(=O)O)cn2-c1ccc(F)cc1F (stereo not given in full)    0.78
N[C@H]1CC(CF)N(c2nc3c(cc2F)c(=O)c(C(=O)O)cn3-c2ccc(F)cc2F)C1 (stereo not given in full)    0.39
C[C@H]1C[C@H](N)CN1c1cc2c(cc1F)c(=O)c(C(=O)O)cn2-c1ccc(F)cc1    0.2

Given the molecule NC1CCN(c2nc3c(cc2F)c(=O)c(C(=O)O)cn3-c2ccc(F)cc2F)C1 (stereo not given) [TOSUFLOXACIN] , what is its reported MIC? 0.2

Which MIC is listed for C[C@H]1C[C@H](N)CN1c1nc2c(cc1F)c(=O)c(C(=O)O)cn2-c1ccc(F)cc1F ? 0.2

====

- Tested on: Streptococcus pyogenes
- assay.notes: In vitro Minimum inhibitory concentration against Streptococcus pyogenes 930
- Assay type: functional
measurement.label: log10 MIC (log10 of the value in µg/mL)
Friendly reminder: values = log10 of MIC, unit µg/mL.

C[C@@H]1C[C@H](N)CN1c1nc2c(cc1F)c(=O)c(C(=O)O)cn2-c1ccc(F)cc1F    0.19
NC1CCN(c2cc3c(cc2F)c(=O)c(C(=O)O)cn3-c2ccc(F)cc2F)C1 (centres undefined)    -0.70
N[C@H]1C[C@@H](CO)N(c2cc3c(cc2F)c(=O)c(C(=O)O)cn3-c2ccc(F)cc2F)C1    1.40
C[C@@H]1C[C@H](N)CN1c1cc2c(cc1F)c(=O)c(C(=O)O)cn2-c1ccc(F)cc1F    0.19
C[C@H]1C[C@H](N)CN1c1nc2c(cc1F)c(=O)c(C(=O)O)cn2-c1ccc(F)cc1F    -0.70

Now take the following molecule into account.
Report log10 MIC for N[C@H]1CC(CO)N(c2cc3c(cc2F)c(=O)c(C(=O)O)cn3-c2ccc(F)cc2F)C1 (some centres undefined) please. -0.41

====

- assay.notes: Blood level was evaluated by a disk agar diffusion assay at 6.0 hr when administered at a peroral dose of 25 mg/kg
- Format: ADME, organism-based
- Design: dose 25 mg/kg, route oral
- condition.set: mouse, po, read-out: Blood level
measurement.label: concentration at 6 h (µg/mL)
Please reply with the bare figure in µg/mL and do not write the unit itself.

Fill in: concentration at 6 h of C[C@H]1C[C@H](N)CN1c1nc2c(cc1F)c(=O)c(C(=O)O)cn2-c1ccc(F)cc1 is ___ 0.3
